Could you please report measured GI50 for the items listed next?
Tested on: NCI-H226
Experiment: NCI tumour cell line growth inhibition, 48 h
The source made the active and inactive calls. Cut-off read from the data, not from the text of the source: active = GI50 up to about 1.1 µM and inactive = higher.

Can you look up the measured GI50 of "CN(C)CCNc1nc(-c2cccs2)cc(-c2cccs2)n1" for me?
15.9 µM (inactive)

Endpoint output: GI50 of "O=C1Nc2ccccc2/C1=C\c1c(Cl)n(-c2ccccc2)c2ccccc12" . Value?
1.7 µM (inactive)

Given NC1CSc2ccccc2NC1=O (stereo unspecified) , state its recorded GI50.
> 100 µM (inactive)

Which value of GI50 has been reported for CCOC(=O)C1=C(C)NC(=S)NC1c1cccc(O)c1 (stereo unspecified) in the records?
55 µM (inactive)

I'd like to know its GI50. The compound in question is "CSc1cc(C(C)(C)C)ccc1C(O)c1ccc(C(C)(C)C)cc1SC"
12.9 µM (inactive)

I have this compound here, "O=C1c2cc3c(cc2CC12Cc1cc4c(cc1C2=O)CCCC4)CCCC3" , and I need its recorded GI50.
> 100 µM (inactive)

So what's the measured GI50 for this one? O=C1CC2(CCC(O)(c3ccc(Cl)cc3)C(C(=O)c3ccc(Cl)cc3)C2)C(=O)c2ccccc2N1 (stereo unspecified)
12.7 µM (inactive)

Param item = Cc1ccc(C2SCC(=O)N2c2ccc(-n3c(-c4ccccc4)nc4ccccc4c3=O)cc2)cc1 (stereo unspecified) ; retrieve measured GI50.
18.5 µM (inactive)

Field request: GI50 | item: CC(=O)OCC(OC(C)=O)C(OC(C)=O)C(OC(C)=O)C(/C=N\Nc1nc2ccccc2c(=O)[nH]1)OC(C)=O (stereo unspecified)
> 100 µM (inactive)

Which GI50 is reported for this compound? "O=C1C(=O)N(C2CCCCC2)C(=S)N1C1CCCCC1"
> 100 µM (inactive)

May I ask what GI50 has been recorded for COc1ccccc1NC(=O)C(=O)C(C#N)CC(C)(C)C=O (stereo unspecified) ?
> 100 µM (inactive)

Which GI50 value is on record for "COc1ccc2/c(=C/c3ccc(N(C)C)cc3)c3cc(-c4ccccc4)[n+](C)n3c2c1" ?
0.265 µM (active)

Return reported GI50; argument: "CC(CCN)(CCN)[N+](=O)[O-]"
> 100 µM (inactive)

Data request, read-out GI50, for "C[C@H]1[C@@H](c2ccccc2)O[B-](c2ccccc2)(c2ccccc2)[N+]1(C)C"
37.7 µM (inactive)

So what does the record say about GI50 for COC(=O)CC1NC(=O)C1C1(C)OCCO1 (stereo unspecified) ?
> 100 µM (inactive)

Which measured GI50 value corresponds to "COc1cccc(C[C@H]2COC(=O)[C@]2(O)Cc2cccc(OC)c2)c1" ?
> 100 µM (inactive)

Give its GI50 value. Item: "O=Cc1ccc(OC[C@H]2COC(=O)N2)cc1"
> 100 µM (inactive)

Reported GI50, compound "O=[N+]([O-])c1cc2c(cc1/C=N/n1c(CO)nc3ccccc31)OCO2" : ____
> 100 µM (inactive)

Can you share its GI50? I mean this compound: CS(=O)(=O)OC1CCC2(C#N)CCC1C2=O (stereo unspecified)
> 100 µM (inactive)

Looking for the measured GI50 of COc1ccc(C(=O)C(c2ccc(OC)cc2)C2(O)C(=O)Nc3ccccc32)cc1 (stereo unspecified) , can you help?
> 100 µM (inactive)

Given COC(=O)C1=C(C)N(NC(=O)c2ccccc2)C(C)(O)C12CCOC2=O (stereo unspecified) , state its recorded GI50.
> 100 µM (inactive)

// returns reported GI50 for input "c1ccc2c(c1)[nH]c1c3ccccc3sc21"
> 100 µM (inactive)

Name the reported GI50 value associated with the compound "O=C(CN1CCN(Cc2ccccc2)CC1)c1ccc2[nH]c(=O)oc2c1"
> 50.6 µM (inactive)

Given the entry "CCc1nc(N)c2nc(-c3cccs3)oc2n1" , report its measured GI50.
> 100 µM (inactive)

Give its GI50 value. Item: COc1ccc2c(c1OC)C(C=C(c1ccccc1)c1ccccc1)CN(C)C2 (stereo unspecified)
22.6 µM (inactive)

Reported GI50, compound "O=c1c2ccccc2c(=O)n2n1CC=CC2" : ____
> 100 µM (inactive)

Where do the numbers come from? From ChEMBL document CHEMBL1201862.
